Experiment: Pharmacokinetic study following a single s.c. administration of 1-MT
Assay type: in vivo, domestic pigs (Sus scrofa domestica)
Conditions: German Landrace, pig, plasma, sc, 1 g, T1/2, half-life, single s.c. administration of 1 g 1-MT; n=3
outcome_measure: half-life (h)
Kindly provide the numeric value in h only, without the unit symbol.

Which half-life is listed for Cn1cc(C[C@H](N)C(=O)O)c2ccccc21 ?
10.9

* * *

Experiment: Pharmacokinetic study following repeated s.c. administration of 1-MT
Type: in vivo, domestic pigs (Sus scrofa domestica)
Conditions: German Landrace, pig, plasma, sc, 1 g
outcome_measure: concentration at 12 h
Hi, when you answer, please include the unit after the number. Thanks!

For the molecule Cn1cc(C[C@H](N)C(=O)O)c2ccccc21 [1-MT, 1-methyl-L-tryptophan] , what concentration at 12 h is on record?
38 µM

* * *

Test: Pharmacokinetic study following a single s.c. administration of 1-MT
Type: in vivo, domestic pigs (Sus scrofa domestica)
Conditions: read-out: Cmax, maximum concentration in pigs plasma; single s.c. administration of 1 g 1-MT; means ± standard deviation, n=3
outcome_measure: Cmax (µM)
Quick note: give the figure in µM, leave out the unit.

Requested field: Cmax. Item: Cn1cc(C[C@H](N)C(=O)O)c2ccccc21
29.1
